Values from paper PMC3384305

Target: T1, NHTF (NHTF C-His) (UniProt Q7DDD9 1-106)
T1 sequence: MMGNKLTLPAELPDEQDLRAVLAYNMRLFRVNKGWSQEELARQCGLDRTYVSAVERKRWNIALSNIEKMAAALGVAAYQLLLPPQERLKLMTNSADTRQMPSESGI
Test: EMSA

binder	binding result
Specific (mutant) 25-mer (dsDNA) DNA 1: TACCCGAAGTAAAATCCGTAACAGC DNA 2: GCTGTTACGGATTTTACTTCGGGTA	no binding
NHTF 5'UTR fragment 2 (dsDNA) DNA 1: TTGATGTGTGTGTGTTTGGGTGTGGCTGCCGCCACCC DNA 2: GGGTGGCGGCAGCCACACCCAAACACACACACATCAA	no binding
NHTF 5'UTR fragment 1 (dsDNA) DNA 1: TGTTTCCCAATCTGTCTTGATTTTATCTCTTTCCTC DNA 2: GAGGAAAGAGATAAAATCAAGACAGATTGGGAAACA	no binding
